- cond: in DMF, 313.15 K
measurement_kind: solubility (mole fraction)

Would you kindly share the measured solubility (mole fraction) for COC(=O)c1ccnc(N)c1 ?
0.0249

---

- cond: in acetonitrile, 323.15 K
measurement_kind: solubility (mole fraction)

Look up solubility (mole fraction): COC(=O)c1ccnc(N)c1
0.0277

---

- cond: in methanol, 313.15 K
measurement_kind: solubility (mole fraction)

Record request: solubility (mole fraction) value, item COC(=O)c1ccnc(N)c1
0.00665

---

- cond: in acetonitrile, 308.15 K
measurement_kind: solubility (mole fraction)
# respond with the number and nothing more

Item under review: COC(=O)c1ccnc(N)c1 . Reported solubility (mole fraction)?
0.0177
